Quick reference for PBM binding z-score among some sequences
System: THRa:RXRa (NR concentration 90 nM, RXRa partner concentration 90 nM)
Assay: PBM binding z-score (relative to random genomic background probes); higher = stronger binding; sequences stand for … in GC…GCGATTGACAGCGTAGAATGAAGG

* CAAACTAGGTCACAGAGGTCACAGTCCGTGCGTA | 4.67
* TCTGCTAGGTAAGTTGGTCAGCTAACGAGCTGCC | -0.549
* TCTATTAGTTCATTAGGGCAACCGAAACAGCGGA | 1.45
* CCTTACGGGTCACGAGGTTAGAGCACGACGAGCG | 3.45
* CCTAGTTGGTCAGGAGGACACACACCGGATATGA | 1.28

Query block: Item `TCATACAGGTGAAGGTAACTCAGGTACGCAGTCG` : provide PBM binding z-score
Result block: 1.67

---

Tested on: PPARg DBDmut:RXRa IVT, anti-PPARg (DBD mutation: PPARg1 K132A/R137A, NR concentration 270 nM, RXRa partner concentration 90 nM)
Assay: PBM binding z-score (relative to random genomic background probes); higher = stronger binding; sequences stand for … in GC…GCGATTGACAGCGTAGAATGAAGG
measurementType: PBM binding z-score
Provide a numeric answer; units are not to be included.

Query block: Item `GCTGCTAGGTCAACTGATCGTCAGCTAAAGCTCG` : provide PBM binding z-score
Result block: 0.249

Query block: Item `TCATATAAGTAAAAGGTGAAAGTCGGTGTGGTAA` : provide PBM binding z-score
Result block: 0.923

Query block: Item `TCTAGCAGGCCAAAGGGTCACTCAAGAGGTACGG` : provide PBM binding z-score
Result block: -0.396

Query block: Item `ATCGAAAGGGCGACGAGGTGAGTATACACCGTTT` : provide PBM binding z-score
Result block: 0.582

Query block: Item `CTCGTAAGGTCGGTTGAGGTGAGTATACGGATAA` : provide PBM binding z-score
Result block: -0.123

---

System: PPARg:RXRa (NR concentration 180 nM, RXRa partner concentration 90 nM)
Assay: PBM binding z-score (relative to random genomic background probes); higher = stronger binding; sequences stand for … in GC…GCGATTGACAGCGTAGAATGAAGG
Quick reference for PBM binding z-score among some sequences
Provide a numeric answer; units are not to be included.

Query block: State the measured PBM binding z-score (PPARg:RXRa (NR concentration 180 nM, RXRa partner concentration 90 nM)) of `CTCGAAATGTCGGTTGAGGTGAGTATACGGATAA`
Result block: 0.0414

Query block: State the measured PBM binding z-score (PPARg:RXRa (NR concentration 180 nM, RXRa partner concentration 90 nM)) of `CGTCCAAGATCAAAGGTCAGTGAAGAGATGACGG`
Result block: 5.29

---

Quick reference for PBM binding z-score among some sequences
System: PXR:RXRa (NR concentration 270 nM, RXRa partner concentration 90 nM)
Assay: PBM binding z-score (relative to random genomic background probes); higher = stronger binding; sequences stand for … in GC…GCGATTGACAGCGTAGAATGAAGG
Provide a numeric answer; units are not to be included.

* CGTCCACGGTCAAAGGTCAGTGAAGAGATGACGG | 4.9
* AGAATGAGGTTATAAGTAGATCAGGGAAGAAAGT | 1.47

Query block: Item `ATGTCTAGGTAAAAGTTCAGTGAATCCCGAGGAT` : provide PBM binding z-score
Result block: 1.87
